Tested on: mice
Test: In vivo predictive sedation-hypnosis test (inhibition of traveled distance)
Set-up: species or system mouse
Settings: male CD1 mice; single equimolecular intraperitoneal doses; traveled distance over 30 min after dosing (first 5 min discarded) versus control
OBSERVED PROPERTY: % Inhibition Motor Activity (%)
Respond numerically; units are % and should not be typed.

Lab note: Cc1ccc(-c2nc3ccc(C)cn3c2CNC(=O)c2c(C)noc2C)cc1 [Example 90] gave % Inhibition Motor Activity of 82.12

Lab note: Cc1ccc(-c2nc3ccc(C)cn3c2CN(C)C(=O)c2ccccn2)cc1 [Example 28] gave % Inhibition Motor Activity of 55.64

Lab note: Cc1ccc(-c2nc3ccc(C)cn3c2CNC(=O)C2CCC2)cc1 [Example 58] gave % Inhibition Motor Activity of 94.25

Lab note: Cc1ccc(-c2nc3ccc(C)cn3c2CNC(=O)c2nccn2C)cc1 [Example 78] gave % Inhibition Motor Activity of 88.10

Lab note: Cc1ccc(-c2nc3ccc(C)cn3c2CNC(=O)c2cnc(C)cn2)cc1 [Example 61] gave % Inhibition Motor Activity of 90.55

Lab note: Cc1ccc(-c2nc3ccc(C)cn3c2CNC(=O)C2=NNC(=O)CC2)cc1 [Example 65] gave % Inhibition Motor Activity of 85.22

Lab note: Cc1ccc(-c2nc3ccc(C)cn3c2CN(C)C(=O)c2cnoc2C)cc1 [Example 99] gave % Inhibition Motor Activity of 13.33

Lab note: Cc1ccc(-c2nc3ccc(C)cn3c2CNC(=O)Cc2cccs2)cc1 [Example 71] gave % Inhibition Motor Activity of 94.08

Lab note: Cc1ccc(-c2nc3ccc(C)cn3c2CNC(=O)c2ccsc2)cc1 [Example 82] gave % Inhibition Motor Activity of 61.93

====

System: α2-GABAA receptor
Assay: Ligand-binding assay, competitive with radiolabeled flumazenil, spinal cord membranes
Conditions: Affinity for α2-GABAA receptor; 10^-7M test compound; rat spinal cord membranes; radiolabeled flumazenil 1 nM
Exercise: state measured % Inhibition 10^−7M for each of the compounds provided.
Respond numerically; units are % and should not be typed.

Lab note: Cc1ccc(-c2nc3ccc(C)cn3c2CNC(=O)c2cc(C)on2)cc1 gave % Inhibition 10^−7M of 33.1

Lab note: Cc1ccc(-c2nc3ccc(C)cn3c2CC(=O)N(C)C)cc1 [Zolpidem, reference compound] gave % Inhibition 10^−7M of 20.1

Lab note: Cc1ccc(-c2nc3ccc(C)cn3c2CNC(=O)c2nc(C)oc2C)cc1 gave % Inhibition 10^−7M of 71.1

Lab note: Cc1ccc(-c2nc3ccc(C)cn3c2CN(C)C(=O)c2ncc(F)cc2F)cc1 gave % Inhibition 10^−7M of 0.0

Lab note: Cc1ccc(-c2nc3ccc(C)cn3c2CNC(=O)c2ccnc(Cl)c2)cc1 gave % Inhibition 10^−7M of 0.0

Lab note: Cc1ccc(-c2nc3ccc(C)cn3c2CNC(=O)C2CCC2)cc1 gave % Inhibition 10^−7M of 9.2

Lab note: Cc1ccc(-c2nc3ccc(C)cn3c2CN(C)C(=O)c2ccccn2)cc1 gave % Inhibition 10^−7M of 14.3

Lab note: Cc1ccc(-c2nc3ccc(C)cn3c2CNC(=O)c2sccc2C)cc1 gave % Inhibition 10^−7M of 0.0

Lab note: Cc1ccc(-c2nc3ccc(C)cn3c2CNC(=O)c2ncc(F)cc2F)cc1 gave % Inhibition 10^−7M of 0.0

Lab note: Cc1ccc(-c2nc3ccc(C)cn3c2CNC(=O)Cc2cccs2)cc1 gave % Inhibition 10^−7M of 7.2

Lab note: COc1ccc(C(=O)N(C)Cc2c(-c3ccc(C)cc3)nc3ccc(C)cn23)cc1 gave % Inhibition 10^−7M of 0.0

Lab note: Cc1ccc(-c2nc3ccc(C)cn3c2CNC(=O)c2ccccn2)cc1 gave % Inhibition 10^−7M of 28.4

Lab note: Cc1ccc(-c2nc3ccc(C)cn3c2CNC(=O)c2nccn2C)cc1 gave % Inhibition 10^−7M of 85.9

Lab note: Cc1ccc(-c2nc3ccc(C)cn3c2CN(C)C(=O)c2cccs2)cc1 gave % Inhibition 10^−7M of 25.0

Lab note: Cc1ccc(-c2nc3ccc(C)cn3c2CNC(=O)c2cscn2)cc1 gave % Inhibition 10^−7M of 1.5

Lab note: Cc1ccc(-c2nc3ccc(C)cn3c2CNC(=O)c2occc2C)cc1 gave % Inhibition 10^−7M of 0.0

Lab note: Cc1ccc(-c2nc3ccc(C)cn3c2CNC(=O)c2c(C)noc2C)cc1 gave % Inhibition 10^−7M of 0.0

Lab note: Cc1ccc(C(=O)N(C)Cc2c(-c3ccc(C)cc3)nc3ccc(C)cn23)cc1 gave % Inhibition 10^−7M of 0.0

====

Tested on: α2-GABAA receptor
Assay: Ligand-binding assay, competitive with radiolabeled flumazenil, spinal cord membranes
Conditions: Affinity for α2-GABAA receptor; 10^-5M test compound; rat spinal cord membranes; radiolabeled flumazenil 1 nM
Threshold 90%. % Inhibition 10^−5M below it: label 1. % Inhibition 10^−5M at it or above: label 0.

Request: Is % Inhibition 10^−5M strictly under 90% for the entry COc1ccc(C(=O)N(C)Cc2c(-c3ccc(C)cc3)nc3ccc(C)cn23)cc1 ?
Result: label 1

Request: Is % Inhibition 10^−5M strictly under 90% for the entry Cc1ccc(-c2nc3ccc(C)cn3c2CN(C)C(=O)c2ccc(N(C)C)cc2)cc1 ?
Result: label 1

Request: Is % Inhibition 10^−5M strictly under 90% for the entry Cc1ccc(-c2nc3ccc(C)cn3c2CNC(=O)C2=NNC(=O)CC2)cc1 ?
Result: label 0

Request: Is % Inhibition 10^−5M strictly under 90% for the entry Cc1ccc(-c2nc3ccc(C)cn3c2CN(C)C(=O)c2cscn2)cc1 ?
Result: label 0

Request: Is % Inhibition 10^−5M strictly under 90% for the entry Cc1ccc(-c2nc3ccc(C)cn3c2CNC(=O)c2cc(C)on2)cc1 ?
Result: label 0

Request: Is % Inhibition 10^−5M strictly under 90% for the entry Cc1ccc(-c2nc3ccc(C)cn3c2CNC(=O)c2cnccn2)cc1 ?
Result: label 0

Request: Is % Inhibition 10^−5M strictly under 90% for the entry CC(=O)c1ccc(C(=O)NCc2c(-c3ccc(C)cc3)nc3ccc(C)cn23)cc1 ?
Result: label 1

Request: Is % Inhibition 10^−5M strictly under 90% for the entry Cc1ccc(-c2nc3ccc(C)cn3c2CNC(=O)c2nccn2C)cc1 ?
Result: label 0

====

System: α1-GABAA receptor
Experiment: Ligand-binding assay, competitive with radiolabeled flumazenil, cerebellum membranes
Conditions: Affinity for α1-GABAA receptor; 10^-5M test compound; rat cerebellum membranes; radiolabeled flumazenil 1 nM
OBSERVED PROPERTY: % Inhibition 10^−5M (%)
Respond numerically; units are % and should not be typed.

Lab note: Cc1ccc(-c2nc3ccc(C)cn3c2CC(=O)N(C)C)cc1 [Zolpidem, reference compound] gave % Inhibition 10^−5M of 94.4

Lab note: Cc1ccc(-c2nc3ccc(C)cn3c2CNC(=O)c2c(C)noc2C)cc1 gave % Inhibition 10^−5M of 84.5

Lab note: Cc1ccc(-c2nc3ccc(C)cn3c2CNC(=O)c2nccn2C)cc1 gave % Inhibition 10^−5M of 100.2

Lab note: Cc1ccc(-c2nc3ccc(C)cn3c2CNC(=O)c2ccccn2)cc1 gave % Inhibition 10^−5M of 99.8

Lab note: Cc1ccc(-c2nc3ccc(C)cn3c2CNC(=O)c2cscn2)cc1 gave % Inhibition 10^−5M of 99.6

Lab note: Cc1ccc(-c2nc3ccc(C)cn3c2CNC(=O)c2ccco2)cc1 gave % Inhibition 10^−5M of 97.4

Lab note: Cc1ccc(-c2nc3ccc(C)cn3c2CNC(=O)c2ccncc2)cc1 gave % Inhibition 10^−5M of 98.0

Lab note: COc1ccc(C(=O)NCc2c(-c3ccc(C)cc3)nc3ccc(C)cn23)cc1 gave % Inhibition 10^−5M of 70.7

Lab note: Cc1ccc(-c2nc3ccc(C)cn3c2CNC(=O)c2cccnc2)cc1 gave % Inhibition 10^−5M of 98.5

====

Test system: α1-GABAA receptor
Experiment: Ligand-binding assay, competitive with radiolabeled flumazenil, cerebellum membranes
Conditions: Affinity for α1-GABAA receptor; 10^-7M test compound; rat cerebellum membranes; radiolabeled flumazenil 1 nM
Protocol: Ligand-binding assays. Determination of the affinity of test compounds for α1- and α2-GABAA receptor. Male Sprague-Dawley rats weighing 200-250 g at the time of experiment were used. […] Affinity was determined by competitive tests using radiolabeled flumazenil as ligand. […] The next day the plates were counted using a Perkin-Elmer Microbeta scintillation counter. For analysis of the results the percentage of specific binding for every concentration of test compound was calculated as follows: […]
Exercise: state measured % Inhibition 10^−7M for each of the molecules provided.
Respond numerically; units are % and should not be typed.

Lab note: Cc1ccc(-c2nc3ccc(C)cn3c2CNC(=O)c2ncc(F)cc2F)cc1 gave % Inhibition 10^−7M of 65.9

Lab note: Cc1ccc(-c2nc3ccc(C)cn3c2CNC(=O)C2CC2)cc1 gave % Inhibition 10^−7M of 53.8

Lab note: Cc1ccc(-c2nc3ccc(C)cn3c2CNC(=O)c2ccsc2)cc1 gave % Inhibition 10^−7M of 33.0

Lab note: Cc1ccc(-c2nc3ccc(C)cn3c2CNC(=O)c2c(C)noc2C)cc1 gave % Inhibition 10^−7M of 0.0

Lab note: Cc1ccc(-c2nc3ccc(C)cn3c2CN(C)C(=O)c2ccc3ccccc3n2)cc1 gave % Inhibition 10^−7M of 31.8
